These entries and their values trace back to patent US20050282755A1.

- System: Pseudomonas aeruginosa ATCC 27853
- experiment: MIC, NCCLS M7-A6 broth microdilution (Table 9, no superscript)
- Format: cell-based
- measurementParameters: ATCC 27853
Non-standard residues stand in square brackets, D forms with d. Residues, ends and D or L forms follow the SMILES beside them. *: point of attachment. Lauroyl = CCCCCCCCCCCC(=O)*
Listed below: MIC P. aeruginosa values for each entry.
attributeMeasured: MIC P. aeruginosa

{"columns": ["compound", "valueMeasured"],
 "data": [
  ["CCCCCCCCCCCC(=O)N[C@@H](Cc1c[nH]c2ccccc12)C(=O)N[C@@H](CCCNC(=N)N)C(=O)N[C@@H](CC(=O)O)C(=O)N[C@H](C(=O)N[C@@H](C)C(=O)N[C@@H](CCCNC(=N)N)C(=O)N[C@@H](CC(N)=O)C(N)=O)C(C)C [Peptide 106, Lauryl-WRDVARN-NH2] (Lauroyl-WRDVARN-NH2)", ">64 µg/mL"],
  ["CCCCCCCCCCCC(=O)N[C@H](CCCNC(=N)N)C(=O)N[C@H](Cc1c[nH]c2ccccc12)C(=O)N[C@H](CCCNC(=N)N)C(=O)N[C@H](CC(=O)O)C(=O)N[C@H](CC(C)C)C(=O)N[C@H](C)C(=O)N[C@H](CCCNC(=N)N)C(N)=O [Peptide 244, Lauryl-rwrdlar-NH2] (Lauroyl-[dR][dW][dR][dD][dL][dA][dR]-NH2)", ">64 µg/mL"],
  ["CCCCCCCCCCCC(=O)N[C@H](CCCNC(=N)N)C(=O)N[C@H](CO)C(=O)N[C@H](C)C(=O)N[C@H](Cc1c[nH]c2ccccc12)C(=O)N[C@H](CCCNC(=N)N)C(=O)N[C@H](CC(=O)O)C(=O)N[C@@H](C(=O)N[C@H](C)C(=O)N[C@H](CCCNC(=N)N)C(=O)N[C@H](CC(N)=O)C(=O)N[C@H](Cc1ccccc1)C(=O)N[C@H](CCSC)C(=O)N[C@H](CCCNC(=N)N)C(N)=O)C(C)C [Peptide 228, Lauryl-rsawrdvarnfmr-NH2] (Lauroyl-[dR][dS][dA][dW][dR][dD][dV][dA][dR][dN][dF][dM][dR]-NH2)", ">64 µg/mL"]
]}

---

- Test system: Pseudomonas aeruginosa ATCC 27853
- experiment: MIC, NCCLS M7-A6 broth microdilution (Table 9, no superscript)
- Format: cell-based
- measurementParameters: ATCC 27853
Non-standard residues stand in square brackets, D forms with d. Residues, ends and D or L forms follow the SMILES beside them. *: point of attachment. Lauroyl = CCCCCCCCCCCC(=O)*
Listed below: MIC P. aeruginosa values for each entry.

{"columns": ["compound", "MIC P. aeruginosa"],
 "data": [
  ["CCCCCCCCCCCC(=O)N[C@H](CCCNC(=N)N)C(=O)N[C@H](CO)C(=O)N[C@H](CCCNC(=N)N)C(=O)N[C@H](Cc1c[nH]c2ccccc12)C(=O)N[C@H](CCCNC(=N)N)C(=O)N[C@H](CC(=O)O)C(=O)N[C@@H](C(=O)N[C@H](C)C(=O)N[C@H](C)C(=O)N[C@H](CC(N)=O)C(=O)N[C@H](Cc1ccccc1)C(=O)N[C@H](CCSC)C(=O)N[C@H](CCCNC(=N)N)C(N)=O)C(C)C [Peptide 230, Lauryl-rsrwrdvaanfmr-NH2] (Lauroyl-[dR][dS][dR][dW][dR][dD][dV][dA][dA][dN][dF][dM][dR]-NH2)", ">64 µg/mL"],
  ["CCCCCCCCCCCC(=O)N[C@@H](CCCNC(=N)N)C(=O)N[C@@H](CO)C(=O)N[C@@H](CCCNC(=N)N)C(=O)N[C@@H](Cc1c[nH]c2ccccc12)C(=O)N[C@@H](CCCNC(=N)N)C(=O)N[C@@H](CC(=O)O)C(=O)N[C@H](C(=O)N[C@@H](C)C(=O)N[C@@H](CCCNC(=N)N)C(=O)N[C@@H](CC(N)=O)C(=O)N[C@@H](Cc1ccccc1)C(N)=O)C(C)C [Peptide 99, Lauryl-RSRWRDVARNF-NH2] (Lauroyl-RSRWRDVARNF-NH2)", ">64 µg/mL"],
  ["CCCCCCCCCCCC(=O)N[C@H](CCCNC(=N)N)C(=O)N[C@H](CO)C(=O)N[C@H](CCCNC(=N)N)C(=O)N[C@H](Cc1c[nH]c2ccccc12)C(=O)N[C@H](CCCNC(=N)N)C(=O)N[C@H](CC(=O)O)C(=O)N[C@@H](C(=O)N[C@H](C)C(=O)N[C@H](CCCNC(=N)N)C(=O)N[C@H](CC(N)=O)C(=O)N[C@H](CO)C(=O)N[C@H](CCSC)C(=O)N[C@H](CCCNC(=N)N)C(N)=O)C(C)C [Peptide 234, Lauryl-rsrwrdvarnsmr-NH2] (Lauroyl-[dR][dS][dR][dW][dR][dD][dV][dA][dR][dN][dS][dM][dR]-NH2)", ">64 µg/mL"]
]}
